system.under.test: human CCR8 (human) (UniProt P51685)
Sequence (P51685 whole entry): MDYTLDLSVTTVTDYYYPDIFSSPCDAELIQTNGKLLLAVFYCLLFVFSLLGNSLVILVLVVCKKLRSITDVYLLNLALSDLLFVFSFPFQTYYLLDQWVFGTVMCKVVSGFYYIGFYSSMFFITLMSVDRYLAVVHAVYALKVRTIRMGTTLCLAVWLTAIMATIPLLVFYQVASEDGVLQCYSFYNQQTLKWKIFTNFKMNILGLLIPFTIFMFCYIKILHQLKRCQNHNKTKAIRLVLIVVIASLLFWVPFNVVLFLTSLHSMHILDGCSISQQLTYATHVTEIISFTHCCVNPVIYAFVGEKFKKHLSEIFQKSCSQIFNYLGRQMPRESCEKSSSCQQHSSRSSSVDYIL
experimental.details: cell-based or functional assay
For each entry below, report its IC50 ratio (WT IC50/mutant IC50) value.
Lab note: record the figure alone, no unit after it.

Query :: Find the recorded IC50 ratio (WT IC50/mutant IC50) belonging to h10A11 IGKV4-1/IGHV3-73 Y58F (antibody, name in Kabat numbering, V domains shown) VH: EVQLVESGGGLVQPGGSLKLSCAASGFAFNTYALYWVRQASGKGLEWVGRIRSKSNNYATFYADSVKDRFTISRDDSKNTAYLQMNSLKTEDTAVYYCTRARFYYSDYGYAMDYWGQGTLVTVSS VL: DIVMTQSPDSLAVSLGERATINCRSSKSLLHSNGNTYLYWYQQKPGQPPKLLIYRMSNLASGVPDRFSGSGSGTDFTLTISSLQAEDVAVYYCMQHLEYPLTFGQGTKLEIKR and report it.
Result :: 0.5

Query :: Queued: h10A11 IGKV4-1/IGHV3-73 A100eV (antibody, name in Kabat numbering, V domains shown) VH: EVQLVESGGGLVQPGGSLKLSCAASGFAFNTYALYWVRQASGKGLEWVGRIRSKSNNYATYYADSVKDRFTISRDDSKNTAYLQMNSLKTEDTAVYYCTRARFYYSDYGYVMDYWGQGTLVTVSS VL: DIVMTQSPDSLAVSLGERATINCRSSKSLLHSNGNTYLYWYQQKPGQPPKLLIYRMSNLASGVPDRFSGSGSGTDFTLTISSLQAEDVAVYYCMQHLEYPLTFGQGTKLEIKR
Result :: 0.49

Query :: Queued: h10A11 IGKV4-1/IGHV3-73 D100aE (antibody, name in Kabat numbering, V domains shown) VH: EVQLVESGGGLVQPGGSLKLSCAASGFAFNTYALYWVRQASGKGLEWVGRIRSKSNNYATYYADSVKDRFTISRDDSKNTAYLQMNSLKTEDTAVYYCTRARFYYSEYGYAMDYWGQGTLVTVSS VL: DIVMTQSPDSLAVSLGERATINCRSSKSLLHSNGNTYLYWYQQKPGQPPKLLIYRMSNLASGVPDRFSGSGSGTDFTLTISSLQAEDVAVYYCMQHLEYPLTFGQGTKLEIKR
Result :: 0.3

Query :: Queued: h10A11 IGKV4-1/IGHV3-73 A60V (antibody, name in Kabat numbering, V domains shown) VH: EVQLVESGGGLVQPGGSLKLSCAASGFAFNTYALYWVRQASGKGLEWVGRIRSKSNNYATYYVDSVKDRFTISRDDSKNTAYLQMNSLKTEDTAVYYCTRARFYYSDYGYAMDYWGQGTLVTVSS VL: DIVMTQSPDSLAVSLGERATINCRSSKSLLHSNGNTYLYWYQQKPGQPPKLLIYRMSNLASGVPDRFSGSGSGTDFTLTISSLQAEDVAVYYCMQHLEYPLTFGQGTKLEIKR
Result :: 0.67

Query :: Queued: h10A11 IGKV4-1/IGHV3-73 S52aT (antibody, name in Kabat numbering, V domains shown) VH: EVQLVESGGGLVQPGGSLKLSCAASGFAFNTYALYWVRQASGKGLEWVGRIRTKSNNYATYYADSVKDRFTISRDDSKNTAYLQMNSLKTEDTAVYYCTRARFYYSDYGYAMDYWGQGTLVTVSS VL: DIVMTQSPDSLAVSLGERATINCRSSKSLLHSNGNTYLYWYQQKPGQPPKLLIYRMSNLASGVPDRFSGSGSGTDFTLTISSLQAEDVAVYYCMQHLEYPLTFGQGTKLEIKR
Result :: 0.22
